# test-protocol: BET inhibitor-based combinations targeting novel dependencies in MECOM-rearranged (r) AML: AML-194 cell line (AID 2202237; note: nearly all actives have a fitted effect of over 40% in size)
# condition-notes: AML-194 (MECOM-r AML) viability, CellTiter-Glo, 48 h; series mostly up to 46 µM
Records with an inconclusive call do not appear. Active and inactive are the calls of the source. Calls come from the whole dose curve; as a rule, active = well fitted inhibition curve with a large enough effect; inconclusive = small, poorly fitted or top-dose-only effect; inactive = flat fitted curve, though single readings scatter.
Your answer must be one of the following: Y (active), N (inactive)

Previously resolved entries follow.
CN(CCOc1ccc(C[C@H](Nc2ccccc2C(=O)c2ccccc2)C(=O)O)cc1)c1ccccn1 : N
N=C(N)c1ccc(OCCCCCOc2ccc(C(=N)N)cc2)cc1 : Y
CC(=O)c1ccc2c(c1)c1cc(C(C)=O)ccc1n2CCNC(C)C : Y
Cc1onc(-c2ccccc2)c1-c1ccc(S(N)(=O)=O)cc1 : N

Please find the next compound below.
Inquiry: Recorded test outcome, item "Cc1ccc(-n2[nH]c(C)c(N=Nc3cccc(-c4cccc(C(=O)O)c4)c3O)c2=O)cc1C"
Reply text: N

---

# test-protocol: BET inhibitor-based combinations targeting novel dependencies in MECOM-rearranged (r) AML: AML-194 cell line (AID 2202237)
# condition-notes: AML-194 (MECOM-r AML) viability, CellTiter-Glo, 48 h; series mostly up to 46 µM
Results filed as inconclusive are left out. The source made the active and inactive calls. Calls follow the shape of the dose curve; as a rule, active = well fitted inhibition curve with a large enough effect; inconclusive = small, poorly fitted or top-dose-only effect; inactive = flat fitted curve, though single readings scatter.
Your answer must be one of the following: active, inactive

Previously resolved entries follow.
COc1cc(OC)c(/C=C/S(=O)(=O)Cc2ccc(OC)c(OP(=O)(O)O)c2)c(OC)c1 : active
COC(=O)C1=C(C)NC(c2ncc(F)cc2F)=N[C@@H]1c1ccc(F)cc1Cl : inactive
CN1CC(=O)N2[C@H](c3ccc4c(c3)OCO4)c3[nH]c4ccccc4c3C[C@@H]2C1=O : inactive
O=C(NCc1ccccc1)c1csc(Nc2ccncn2)n1 : active
CC[C@@H]1[C@H](F)C(=O)N[C@@H]1COc1nccc2cc(C(N)=O)c(OC)cc12 : active
C=CC(=O)N1CCc2ccc(-n3c(=O)ccc4cnc5ccc(-c6cnn(C)c6)cc5c43)cc21 : active
O=C(NCc1ccc(S(=O)(=O)c2cccc(C(F)(F)F)c2)cc1)c1cnc2[nH]ncc2c1 : active
Nc1ccc(F)cc1NC(=O)c1ccc(CNC(=O)/C=C/c2cccnc2)cc1 : active
COc1cc([C@@H]2c3cc4c(cc3[C@@H](O[C@@H]3O[C@@H]5CO[C@@H](c6cccs6)O[C@H]5[C@H](O)[C@H]3O)[C@H]3COC(=O)[C@H]23)OCO4)cc(OC)c1O : active
CNCCCOc1cc(F)c(-c2c(Cl)nc3ncnn3c2N[C@@H](C)C(F)(F)F)c(F)c1 : active

Inquiry: Recorded test outcome, item "Cc1ccc(S(=O)(=O)Nc2cc(-c3ccc(C#N)s3)ccc2C)cc1"
Reply text: active

Inquiry: Recorded test outcome, item COc1ncc(Nc2ncc(C(C)N3CCN(S(C)(=O)=O)CC3)cc2-c2nc(C)nc(N)n2)cc1F (stereo not given)
Reply text: inactive

Inquiry: Recorded test outcome, item "CC(=O)N1CCN(c2ccc(NC(=O)Cc3cnc(-c4ccnc(F)c4)c(C)c3)nc2)CC1"
Reply text: inactive

Inquiry: Recorded test outcome, item "CN1C(C(=O)Nc2ccccn2)=C(O)c2sccc2S1(=O)=O"
Reply text: inactive

Inquiry: Recorded test outcome, item "COC(=O)Nc1nc2ccc(C(=O)c3ccccc3)cc2[nH]1"
Reply text: active

Inquiry: Recorded test outcome, item "Nc1cccc2c1CN([C@H]1CCC(=O)NC1=O)C2=O"
Reply text: inactive

Inquiry: Recorded test outcome, item O=C(O)CC(C(=O)O)n1c(O)c(C2=c3cc(Br)ccc3=NC2=O)sc1=S (stereo not given)
Reply text: inactive

Inquiry: Recorded test outcome, item "CC(C)Oc1ccc(C(=O)N[C@H](CNC(=O)CN(C)C)Cc2ccc(-c3cn4cccc([C@H](C)O)c4n3)cc2)cc1Cl"
Reply text: active

Inquiry: Recorded test outcome, item "CN(C)c1cc(NC(=O)CNC(C)(C)C)c(O)c2c1C[C@H]1C[C@H]3[C@H](N(C)C)C(=O)C(C(N)=O)=C(O)[C@]3(O)C(=O)C1=C2O"
Reply text: inactive

Inquiry: Recorded test outcome, item "CN[C@@H](C)C(=O)N[C@H](C(=O)N1CCC[C@H]1C(=O)Nc1sc(-c2ncco2)nc1-c1ccccc1)C1CCCCC1"
Reply text: inactive

Inquiry: Recorded test outcome, item "CC1=C(c2ccc(O)cc2)[C@H](c2ccc(OCCN3CCCCC3)cc2)Oc2cc(O)ccc21"
Reply text: inactive

Inquiry: Recorded test outcome, item "CCCNC(=O)c1cn2ncnc(Nc3cc(C(=O)NC4CC4)ccc3C)c2c1C"
Reply text: inactive

Inquiry: Recorded test outcome, item "O=C(Nc1ncc(SCCN2CCCC2)s1)[C@]1(c2ccc(S(=O)(=O)C3CC3)cc2)C[C@H]1C1CCCCC1"
Reply text: active

Inquiry: Recorded test outcome, item "NC(=O)c1cc(F)cc2c1C(=O)N(C1CCN(C3CCC(F)(F)CC3)CC1)C2"
Reply text: inactive

Inquiry: Recorded test outcome, item "Nc1ncccc1-c1nc2ccc(-c3ccccc3)nc2n1-c1ccc(C2(N)CCC2)cc1"
Reply text: active
